- target entity: Mushroom tyrosinase
- procedure text: o-diphenolase assay of mushroom tyrosinase, L-DOPA substrate, DOPAchrome absorbance at […] nm
property: IC50
Please provide the amount together with its unit, number first.

Just so you know, measured IC50 for CC(=O)OC[C@]12[C@H](OC(C)=O)[C@H](O)C[C@H](C)[C@]1(OC(C)=O)[C@@H](OC(C)=O)[C@@H](C(C)(C)O)C[C@H]2OC(=O)c1ccccc1 (relative stereo) [compound 1] came out at 14.8 µM

Just so you know, measured IC50 for CC(=O)O[C@@]12C[C@@H](C(C)(C)O)C[C@@H](OC(=O)c3ccccc3)[C@@]1(CO)[C@H](O)[C@H](O)C[C@@]2(C)OC(C)=O (relative stereo) [compound 2] came out at 22.3 µM
